Assay: Solubility of the compound at pH 7.4
Type: physicochemical
Conditions: buffer
experimentalEndpoint: solubility (µM)
Unit µM implied. Number only.

Exercise: # query: solubility of entry CCOP(=O)(OCC)c1ccc(OCCc2cnc3c(c2)C(=O)N(C)c2cccnc2N3CC)c(C)c1
Key: 4

---

Assay: Clearance in iv dosed beagle dog
Format: ADME, organism-based, Canis lupus familiaris
Conditions: in vivo
experimentalEndpoint: clearance (mL/min/kg)
Unit mL/min/kg implied. Number only.

Exercise: # query: clearance of entry CCOP(=O)(OCC)c1ccc(OCCc2cnc3c(c2)C(=O)N(C)c2cccnc2N3CC)c(C)c1
Key: 39

---

System: Human immunodeficiency virus
Experiment: Antiviral activity against wild type HIV by cell based assay
Assay type: functional, organism-based
Conditions: Human immunodeficiency virus 1
Label scheme for EC50: band A: < 8 nM; band B: ≥ 8 nM and < 70 nM; band C: ≥ 70 nM

# count of solved cases: 2
> print(dat)
                                   compound                        target   group
1  CCN1c2ncc(CCOc3ccc(P(=O)(O)O)cc3C)cc2C(=O)N(C)c2cccnc21  Human immunodeficiency virus  band C
2  CCN1c2ncc(NCc3ccc(OCP(=O)(O)O)cc3)cc2C(=O)N(C)c2cccnc21  Human immunodeficiency virus  band C

Exercise: Quick check: band for CCN1c2ncc(CCc3ccc(O)cc3)cc2C(=O)N(C)c2cccnc21
Key: band B

Exercise: Quick check: band for Cc1ccnc2c1NC(=O)c1cccnc1N2C1CC1 [NEVIRAPINE]
Key: band C

Exercise: Quick check: band for CCOP(=O)(COc1ccc(CCc2cnc3c(c2)C(=O)N(C)c2cccnc2N3CC)cc1)OCC
Key: band B

Exercise: Quick check: band for CCOP(=O)(COc1ccc(CNc2cnc3c(c2)C(=O)N(C)c2cccnc2N3CC)cc1)OCC
Key: band B

Exercise: Quick check: band for CCN1c2ncc(CCc3ccc(OCP(=O)(O)O)cc3)cc2C(=O)N(C)c2cccnc21
Key: band C

Exercise: Quick check: band for O=C1Nc2ccc(Cl)cc2[C@@](C#CC2CC2)(C(F)(F)F)O1 [EFAVIRENZ]
Key: band A

Exercise: Quick check: band for CCOP(=O)(OCC)c1ccc(OCCc2cnc3c(c2)C(=O)N(C)c2cccnc2N3CC)c(C)c1
Key: band A

Exercise: Quick check: band for CCN1c2ncc(CCc3ccc(OC)cc3)cc2C(=O)N(C)c2cccnc21
Key: band C
